test system: Pseudomonas aeruginosa; experiment: Antimicrobial activity against Pseudomonas aeruginosa B4 by broth dilution method; format: functional

| MOLECULE | MIC |
| --- | --- |
| CC1(C)[C@H](NC(=O)/C(=N\OCc2cc(=O)c(O)cn2O)c2csc(N)n2)C(=O)N1OS(=O)(=O)O (stereo in doubt) | 0.5 µg/mL |
| C[C@@H](O)[C@H]1C(=O)N2C(C(=O)O)=C(SCCNC=N)C[C@H]12 [IMIPENEM ANHYDROUS] | 1 µg/mL |
| C[C@@H](O)[C@H]1C(=O)N2C(C(=O)O)=C(S[C@@H]3CN[C@H](C(=O)N(C)C)C3)[C@H](C)[C@H]12 | ≤ 0.06 µg/mL |
| CC(C)(O/N=C(\C(=O)N[C@@H]1C(=O)N2C(C(=O)[O-])=C(C[n+]3ccccc3)CS[C@H]12)c1csc(N)n1)C(=O)O | 4 µg/mL |
